Origin of measurements: paper PMC8302504

# Test system: WT zebrafish larvae
# Experiment summary: Toxicity evaluation: maximum tolerated concentration (MTC)
# Type: in vivo, Danio rerio
# Measurement conditions: WT larvae 6 dpf, 22 h incubation
So I've got a bunch of molecules here, and I need their maximum tolerated concentration (MTC) values.
Numbers only, in µM.

Record excerpt, results attached:
[in] Please give the measured maximum tolerated concentration (MTC) for this molecule: O=C1NC(=O)C(c2ccccc2)(c2ccccc2)N1
[out] 100

[in] Please give the measured maximum tolerated concentration (MTC) for this molecule: CN1C(=O)CC(=O)N(c2ccccc2)c2cc(Cl)ccc21
[out] 100

Turning now to a further record.
[in] Please give the measured maximum tolerated concentration (MTC) for this molecule: Nc1nnc(-c2cccc(Cl)c2Cl)c(N)n1
[out] 100
